Assay: Acute toxicity in mice was expressed as lethal dose
Type: organism-based
Conditions: mouse, in vivo
reported-metric: LD50 (mg/kg)
Please give a number only; it is taken to be in mg/kg.

Enquiry: Find the recorded LD50 belonging to COc1ccc2[nH]c3c(NN)nncc3c2c1.Cl and report it.
Return: 225

* * *

Test system: Rattus norvegicus
Test: Antihypertensive activity in spontaneously hypertensive rats (SHR) measured by percentage fall in arterial pressure (AP) at 5 mg/kg administered intraperitoneally at 24 h
Assay type: functional, Artery
Conditions: route intraperitoneal
Examples of compounds with documented Decrease in AP follow.
Reply numerically in %, unit not repeated.

Worked cases, Decrease in AP given:
Enquiry: Any idea what Decrease in AP was measured for Br.Br.NNc1[nH]ncc2c3cc(O)ccc3nc1-2 ?
Return: 6

Enquiry: Ok, now CCOc1ccc2[nH]c3c(NN)nncc3c2c1.Cl
Return: 12

Enquiry: How about COc1ccc2[nH]c3c(NN)nncc3c2c1.Cl ?
Return: 9

---
Enquiry: Record request: Decrease in AP value, item NNc1[nH]ncc2c3cc(OCc4ccccc4)ccc3nc1-2
Return: 7
